target: acyl-CoA: cholesterol acyltransferase (ACAT); assay: in vitro ACAT inhibition, rabbit intestinal microsomes (IAI); assay type: biochemical; conditions: radiolabeled cholesterol oleate formed from radiolabeled oleic acid
pIC50: −log10 of the molar value.
readout.label: pIC50

Example compounds with recorded pIC50:
CCCCCCCCCCCCCCn1nnc(CC(=O)Nc2c(OC)cc(OC)cc2OC)n1 [Example 49] :: 7.82
CCCCCCCCCCCCn1nnc(C(C)C(=O)Nc2c(OC)cc(OC)cc2OC)n1 (racemic) [Example 58] :: 7.51
C=CCC(CC=C)(C(=O)Nc1c(OC)cc(OC)cc1OC)c1nnn(CCCCCCCCCCCC)n1 [Example 28] :: 7.74
CCCCCCCCCCCCn1nnc(C(C(=O)Nc2c(OC)cc(OC)cc2OC)c2ccc3ccccc3c2)n1 (racemic) [Example 53] :: 7.01
CCCCCCCCCCCCn1nnc(C(C(=O)NC2CC2)c2ccccc2)n1 (racemic) [Example 20] :: 7.33
CCCCCCCCCCCCn1nnc(C(C(=O)Nc2c(C(C)C)cccc2C(C)C)c2ccccc2)n1 (racemic) [Example 15] :: 8.10

[I] CCCCCCCCCCCCn1nnc(CCC(=O)Nc2c(C(C)C)cccc2C(C)C)n1 [Example 35]
[II] CCCCCCCCCCCCn1nnnc1C(C(=O)Nc1c(C(C)C)cccc1C(C)C)c1ccccc1 (racemic) [Example 26]
**Query** When their pIC50 values are compared, which is larger, I or II ? To answer, give the label that identifies your chosen option.
**Result** I
